molecular target: human recombinant FGFR4 catalytic structural domain protein (Homo sapiens (Human), UniProt P22455); experiment: FGFR4 activity inhibition test (HTRF kinase assay); details: 90 μM ATP
Sequence (P22455 460-802): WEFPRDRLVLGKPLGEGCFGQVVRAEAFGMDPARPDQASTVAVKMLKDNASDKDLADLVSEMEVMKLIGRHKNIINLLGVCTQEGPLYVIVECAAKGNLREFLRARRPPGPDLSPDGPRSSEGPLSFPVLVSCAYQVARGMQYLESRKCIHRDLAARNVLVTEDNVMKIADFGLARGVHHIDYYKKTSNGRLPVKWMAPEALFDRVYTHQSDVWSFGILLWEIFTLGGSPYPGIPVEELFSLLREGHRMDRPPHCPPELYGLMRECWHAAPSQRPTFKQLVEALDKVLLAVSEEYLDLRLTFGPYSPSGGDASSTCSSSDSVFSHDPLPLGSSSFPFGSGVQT
Overview of reported IC50 across a group of compounds:

| STRUCTURE STRING | IC50 |
| --- | --- |
| COCCOc1cc(NC(=O)N(C)c2ccc(CN3CCN(C)CC3=O)c(C=O)n2)ncc1C#N | < 10 nM |
| CC(C)Oc1cc(NC(=O)N(C)c2ccc(CN3CCOCC3=O)c(C=O)n2)ncc1C#N | 10 to 100 nM |
| CN(C(=O)Nc1ccc(C#N)cn1)c1cccc(C=O)n1 | 10 to 100 nM |
| COCCNc1cc(NC(=O)N(C)c2ccc(CO)c(C=O)n2)ncc1C#N | 100 to 1000 nM |
| COCCNc1cc(NC(=O)N(C)c2ccc(C3CCNCC3)c(C=O)n2)ncc1C#N | 10 to 100 nM |
| CN(C(=O)Nc1cc(Cl)ncn1)c1cccc(C=O)n1 | 100 to 1000 nM |
| CC(C)Nc1cc(NC(=O)N(C)c2cccc(C=O)n2)ncc1C#N | < 10 nM |
| CN(C(=O)Nc1cc(Cl)c(C#N)cn1)c1ccc(CO)c(C=O)n1 | 100 to 1000 nM |
| COCCNc1cc(NC(=O)N(C)c2nccc(C=O)n2)ncc1C#N | 100 to 1000 nM |
| CN1CCN(Cc2ccc(N(C)C(=O)Nc3cc(Cl)c(C#N)cn3)nc2C=O)C(=O)C1 | 100 to 1000 nM |
| COCCOc1cc(NC(=O)N(C)c2cccc(C=O)n2)ncc1C#N | < 10 nM |
